Assignment: determine reported activation for the given molecules.
biological target: 5-hydroxytryptamine receptor 1E (Homo sapiens); assay: 5-HT1E receptor agonists, primary screen, cell-based, HTS (AID 574); details: CHO 5-HT1E Ga15 NFAT-bla reporter, FRET; at 6 µM; stronger effect = higher value; 0% DMSO wells, 100% control agonist wells;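 also: 100% = positive control agonist at 1 µM giving full maximal response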
About 450 (0.69%) of roughly 65,000 compounds were called active. This excerpt belongs to a sample that is enriched for actives.
Report only the number, with the unit % understood.

Which activation value is on record for O=C(CN(Cc1ccccc1)C(=O)c1ccc2c(c1)OCCO2)NCc1ccc2c(c1)OCO2 ? -1.2

Which activation value is on record for Cn1c(C(=O)NCCCN2CCN(c3cccc(Cl)c3)CC2)cc2c(=O)n(C)c3ccccc3c21 ? 14.6

Which activation value is on record for Cc1nn(-c2cc(Cl)ccc2N)c(=O)c2ccccc12 ? -0.1

Which activation value is on record for COCCNC(=O)Cn1cc2c(n1)CCCCC2 ? -0.1

Which activation value is on record for CCn1c(CNc2ccc(OC)cc2)nnc1SCC(=O)c1ccc(OC)cc1 ? 0.6

Which activation value is on record for CCN1C(=O)CS/C1=N\c1nccs1 ? -0.1

Which activation value is on record for O=C(c1ccc2c(c1)C(=O)N(c1ccc(Cl)cc1)C2=O)N1CCN(c2ccccn2)CC1 ? 0.4

Which activation value is on record for Fc1ccccc1CCNc1nnnn1-c1ccccc1 ? -0.5

Which activation value is on record for CCOC(=O)Cn1c2c(c(-c3ccccc3OC)cc1=O)CCCC2 ? -0.4

Which activation value is on record for CCN(CC)P(=O)(C(NC(=O)OC)C(F)(F)C(F)(F)C(F)(F)C(F)F)N(CC)CC (stereo not given) ? 0.8

Which activation value is on record for CC1CCCC(N2CCN(C(=O)c3ccc(F)cc3)CC2)C1 (stereo not given) ? -0.1

Which activation value is on record for COc1cccc(OC)c1C(=O)Nc1nnc(C(C)C)s1 ? -0.1

Which activation value is on record for c1n[nH]c(NCc2ccc3c(c2)OCO3)n1 ? -0.5

Which activation value is on record for CCC(=O)Nc1ccccc1N1CCN(S(C)(=O)=O)CC1 ? -0.7

Which activation value is on record for Cc1oc(-c2cccc(Cl)c2)[n+]([O-])c1C ? 0.2

Which activation value is on record for CC(=C1C(=O)c2ccccc2C1=O)N1CCN(c2ccccn2)CC1 ? 0.2

Which activation value is on record for O=S(=O)(NCc1ccccc1Cl)c1cnc[nH]1 ? 0.3

Which activation value is on record for O=C(Nc1ccccc1C(F)(F)F)c1cc(-c2ccc(O)cc2)on1 ? 0.1

Which activation value is on record for CCOCC(=O)NCc1ccc2c(c1)cc(C)n2C ? 0.7

Which activation value is on record for CC(C)=C(NC(=O)c1ccco1)C(=O)NCCc1nc2ccccc2[nH]1 ? 1.5

Which activation value is on record for O=C(NC1(C(F)(F)F)N=C2SCCN2C1=O)c1ccco1 (stereo not given) ? -0.1

Which activation value is on record for Cn1c(NC(=O)c2ccco2)c(-c2ccccc2Cl)c(=O)c2ccccc21 ? 0.2

Which activation value is on record for C=CCn1c(COc2ccccc2)nnc1SCC(=O)NCC(=O)OCC ? -0.3

Which activation value is on record for Cc1nc2ccccc2c2oc(C(=O)NCCCN3CCC(C)CC3)cc12 ? -0.7

Which activation value is on record for CSc1nc2ccc(S(=O)(=O)N3CCc4ccccc43)cc2s1 ? 0.9

Which activation value is on record for CN1CCN(CCCNC(=O)c2cc3c(=O)oc4ccccc4c3s2)CC1 ? 14.9

Which activation value is on record for COc1ccccc1C(=O)N1CCN=C1SCc1cccnc1 ? -0.4

Which activation value is on record for O=C(Nc1ccccc1C(=O)N1CCOCC1)C1CCC(=O)N1C1CCCC1 (stereo not given) ? 0.6

Which activation value is on record for Cc1ccc(NC2=NC(c3ccccc3)n3c(nc(C)cc3=O)N2)cc1 (stereo not given) ? 0.3

Which activation value is on record for CC1CCCC(C)N1CCCNC(=O)c1cc2c(=O)n(C)c3ccccc3c2n1C (stereo not given) ? 0.8

Which activation value is on record for Cc1cccc2c1N(CC(=O)OC(C)C)C(=O)C2=O ? 0.3

Which activation value is on record for N#Cc1nc(Cc2ccccc2)oc1NCCc1ccccc1 ? -0.8

Which activation value is on record for CCCC1C(c2ccccc2)C(C#N)(C#N)C2(C#N)CC1(N)NC2=O (stereo not given) ? 0.5

Which activation value is on record for CCOc1ccc(Cn2c(SCCCCC#N)nc3c2c(=O)n(C)c(=O)n3C)cc1OCC ? 0.1

Which activation value is on record for CCCCn1nnnc1NCc1cc(OC)c(OC)c(OC)c1 ? -0.7

Which activation value is on record for CCCc1nnc(NC(=O)c2cc(OC)cc(OC)c2)s1 ? 0.7

Which activation value is on record for CCOc1ccc2nc(NC(=O)CSc3nc4c(c(=O)n(C)c(=O)n4C)n3CC)sc2c1 ? -0.3

Which activation value is on record for O=C1NC(c2ccncc2)Nc2sc3c(c21)CCCC3 (stereo not given) ? 0.1

Which activation value is on record for CCCCN(C)C(=O)c1ccc2c(c1)N(CC)C(=O)c1ccccc1S2(=O)=O ? -1.1

Which activation value is on record for CN1CCN(Cc2c(O)ccc3c2oc(=O)c2ccccc23)CC1 ? -1.2
